Attribution: patent US5672585A

test system: GP IIb/IIIa (Homo sapiens, UniProt P05106+P08514)
Sequence (P08514 32-887 limits assumed): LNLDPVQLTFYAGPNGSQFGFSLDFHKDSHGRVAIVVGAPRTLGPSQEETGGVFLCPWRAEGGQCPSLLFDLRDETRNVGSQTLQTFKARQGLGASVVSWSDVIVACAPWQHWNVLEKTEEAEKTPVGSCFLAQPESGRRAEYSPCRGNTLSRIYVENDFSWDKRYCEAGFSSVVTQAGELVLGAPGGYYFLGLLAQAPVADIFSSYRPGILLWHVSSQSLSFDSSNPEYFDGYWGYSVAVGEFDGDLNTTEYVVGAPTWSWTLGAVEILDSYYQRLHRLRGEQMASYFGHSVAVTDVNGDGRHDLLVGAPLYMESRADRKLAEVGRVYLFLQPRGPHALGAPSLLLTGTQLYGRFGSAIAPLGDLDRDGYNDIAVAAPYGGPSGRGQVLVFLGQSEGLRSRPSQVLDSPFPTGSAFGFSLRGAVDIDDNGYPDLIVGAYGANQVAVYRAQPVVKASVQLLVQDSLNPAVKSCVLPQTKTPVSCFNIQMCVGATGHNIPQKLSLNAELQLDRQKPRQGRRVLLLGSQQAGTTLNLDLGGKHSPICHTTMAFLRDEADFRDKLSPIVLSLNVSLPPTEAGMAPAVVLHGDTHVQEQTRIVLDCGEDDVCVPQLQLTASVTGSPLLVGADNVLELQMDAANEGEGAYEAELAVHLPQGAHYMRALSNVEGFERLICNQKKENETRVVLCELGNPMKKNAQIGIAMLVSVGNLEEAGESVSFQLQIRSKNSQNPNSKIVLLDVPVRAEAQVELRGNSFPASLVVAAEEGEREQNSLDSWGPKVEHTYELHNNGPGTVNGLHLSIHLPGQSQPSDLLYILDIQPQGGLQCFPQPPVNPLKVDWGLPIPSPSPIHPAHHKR
Sequence (P08514 891-1039 partner limits assumed): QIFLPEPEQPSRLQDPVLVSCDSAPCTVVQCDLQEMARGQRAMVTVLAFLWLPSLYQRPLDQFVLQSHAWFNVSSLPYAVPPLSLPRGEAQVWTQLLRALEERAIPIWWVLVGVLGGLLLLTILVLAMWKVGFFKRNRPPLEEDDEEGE
Sequence (P05106 27-788): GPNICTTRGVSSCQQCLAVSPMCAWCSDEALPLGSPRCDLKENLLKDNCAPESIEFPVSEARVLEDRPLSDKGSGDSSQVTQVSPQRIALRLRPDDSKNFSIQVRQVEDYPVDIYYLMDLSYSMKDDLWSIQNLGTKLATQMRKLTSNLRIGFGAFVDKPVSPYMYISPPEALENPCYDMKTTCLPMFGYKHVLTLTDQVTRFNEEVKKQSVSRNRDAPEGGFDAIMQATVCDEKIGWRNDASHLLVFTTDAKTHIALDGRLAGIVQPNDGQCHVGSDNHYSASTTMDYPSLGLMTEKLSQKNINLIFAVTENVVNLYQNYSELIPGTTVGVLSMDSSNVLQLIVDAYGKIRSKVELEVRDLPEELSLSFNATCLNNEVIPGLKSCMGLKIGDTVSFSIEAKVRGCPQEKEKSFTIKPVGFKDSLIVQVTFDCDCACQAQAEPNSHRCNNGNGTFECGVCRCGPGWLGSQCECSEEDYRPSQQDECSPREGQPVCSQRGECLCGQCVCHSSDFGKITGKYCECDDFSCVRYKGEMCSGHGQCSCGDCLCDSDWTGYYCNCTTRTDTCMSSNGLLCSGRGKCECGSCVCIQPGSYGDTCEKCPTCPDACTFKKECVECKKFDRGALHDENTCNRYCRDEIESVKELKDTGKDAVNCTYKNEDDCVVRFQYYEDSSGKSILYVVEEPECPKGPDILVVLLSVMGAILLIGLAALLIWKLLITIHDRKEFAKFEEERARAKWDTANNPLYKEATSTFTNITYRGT
test name: IIb/IIIa binding, ELISA or liposome attachment assay (Table I)
Set-up: Platelet glycoprotein IIb/IIIa was purified from outdated human platelets; from tissue; host or cells: outdated human platelets
experimental setup: purified receptor
experimental readout: IC50 (µM)
Numeric only. Scale: µM

Prompt: Lab request: please report IC50 under test system GP IIb/IIIa (Homo sapiens, UniProt P05106+P08514) for VRGDSPDG
Completion: 0.27

---

For each of the sequences below, state its pIC50.
test system: vitronectin receptor (Vn-R)
test name: VnR binding, ELISA or liposome attachment assay (Table I)
Parameters: species or system human
experimental setup: purified receptor
Please note pIC50 is a logarithmic value: minus log10 of concentration in mol/L. Answer with that number alone.

Prompt: Lab request: please report pIC50 under test system vitronectin receptor (Vn-R) for FRGDSPDG
Completion: 7.40

Prompt: Lab request: please report pIC50 under test system vitronectin receptor (Vn-R) for VRGDSPDG
Completion: 6.62

Prompt: Lab request: please report pIC50 under test system vitronectin receptor (Vn-R) for YRGDSPDG
Completion: 7.10

Prompt: Lab request: please report pIC50 under test system vitronectin receptor (Vn-R) for LRGDSPDG
Completion: 6.70

---

For each of the sequences below, state its pIC50.
test system: Fibronectin receptor (Fn-R) (Homo sapiens, UniProt P05556+P08648)
Construct: Fibronectin receptor (Fn-R) was similarly purified from (100 mM) octyl glucoside-extracted human placenta; from tissue; host or cells: human placenta
Sequence (P08648 42-894 limits assumed): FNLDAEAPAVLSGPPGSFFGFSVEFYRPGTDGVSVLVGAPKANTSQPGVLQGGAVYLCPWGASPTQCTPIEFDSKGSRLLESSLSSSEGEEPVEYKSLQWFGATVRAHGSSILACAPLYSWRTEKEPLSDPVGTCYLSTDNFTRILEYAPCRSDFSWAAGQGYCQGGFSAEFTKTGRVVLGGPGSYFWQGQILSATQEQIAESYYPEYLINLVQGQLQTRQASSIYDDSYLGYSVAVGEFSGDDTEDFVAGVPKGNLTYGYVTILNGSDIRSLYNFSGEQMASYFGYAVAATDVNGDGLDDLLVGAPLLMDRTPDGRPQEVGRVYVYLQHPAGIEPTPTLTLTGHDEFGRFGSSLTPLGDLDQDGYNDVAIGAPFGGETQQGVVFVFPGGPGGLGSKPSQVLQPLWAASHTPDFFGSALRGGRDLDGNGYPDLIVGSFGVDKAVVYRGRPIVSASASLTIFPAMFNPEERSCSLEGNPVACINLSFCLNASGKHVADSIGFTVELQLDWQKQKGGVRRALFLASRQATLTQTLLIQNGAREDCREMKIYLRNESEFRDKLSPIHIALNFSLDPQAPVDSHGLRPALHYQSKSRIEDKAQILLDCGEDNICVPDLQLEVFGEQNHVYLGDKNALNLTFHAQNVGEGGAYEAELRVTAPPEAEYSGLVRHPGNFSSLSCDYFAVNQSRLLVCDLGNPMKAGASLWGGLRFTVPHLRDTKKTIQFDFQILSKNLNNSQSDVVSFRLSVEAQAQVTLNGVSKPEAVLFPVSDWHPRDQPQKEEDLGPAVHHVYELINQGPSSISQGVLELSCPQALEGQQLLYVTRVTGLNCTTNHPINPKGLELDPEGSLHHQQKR
Sequence (P08648 895-1049 partner limits assumed): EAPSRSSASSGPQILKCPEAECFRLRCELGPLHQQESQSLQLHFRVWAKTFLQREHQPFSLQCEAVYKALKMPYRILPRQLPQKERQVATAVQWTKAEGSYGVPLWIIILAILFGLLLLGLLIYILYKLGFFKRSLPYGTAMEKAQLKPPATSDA
Sequence (P05556 21-798): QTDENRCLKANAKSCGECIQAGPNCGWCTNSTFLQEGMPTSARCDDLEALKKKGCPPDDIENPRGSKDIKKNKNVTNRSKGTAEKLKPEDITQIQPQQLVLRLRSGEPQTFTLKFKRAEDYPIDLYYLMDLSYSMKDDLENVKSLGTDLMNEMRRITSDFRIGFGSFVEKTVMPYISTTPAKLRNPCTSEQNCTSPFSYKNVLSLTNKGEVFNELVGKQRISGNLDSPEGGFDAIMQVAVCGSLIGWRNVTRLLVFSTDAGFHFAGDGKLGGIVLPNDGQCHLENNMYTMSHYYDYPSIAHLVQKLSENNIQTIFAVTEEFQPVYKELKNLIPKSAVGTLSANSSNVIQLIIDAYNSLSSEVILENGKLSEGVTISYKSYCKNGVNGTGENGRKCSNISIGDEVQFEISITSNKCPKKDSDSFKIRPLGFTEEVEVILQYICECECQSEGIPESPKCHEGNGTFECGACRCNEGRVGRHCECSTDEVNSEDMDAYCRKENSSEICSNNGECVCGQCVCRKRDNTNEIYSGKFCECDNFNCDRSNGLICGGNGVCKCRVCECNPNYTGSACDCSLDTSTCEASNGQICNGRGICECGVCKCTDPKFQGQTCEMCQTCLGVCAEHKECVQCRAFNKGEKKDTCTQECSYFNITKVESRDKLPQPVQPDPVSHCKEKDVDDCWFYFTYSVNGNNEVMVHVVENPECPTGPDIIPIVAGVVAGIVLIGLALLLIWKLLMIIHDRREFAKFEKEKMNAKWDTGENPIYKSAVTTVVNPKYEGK
test name: FnR binding, competitive ELISA (Table I)
experimental setup: purified receptor, * concentrations unconfirmed by amino acid composition analysis
Please note pIC50 is a logarithmic value: minus log10 of concentration in mol/L. Answer with that number alone.

Prompt: Look at this sequence and give its reported pIC50. FRGDSPDG
Completion: 5.62

Prompt: Look at this sequence and give its reported pIC50. VRGDSPDG
Completion: 7.40

---

System: platelets
test name: Thrombin-stimulated platelet aggregation (Table I)
experimental setup: read-out: Thrombin Stimulated Aggregation; thrombin 2 U/ml, gel-filtered platelets, 37° C.
Where no end group is shown, it is not given here. [ ]: non-standard residue; d: D form. Pen = CC(C)(S)[C@H](N)C(=O)O
experimental readout: pIC50
Please note pIC50 is a logarithmic value: minus log10 of concentration in mol/L. Answer with that number alone.

Prompt: Look at this substance and give its reported pIC50. G(Pen)LRGDSPCA
Completion: 3.51

Prompt: Look at this substance and give its reported pIC50. G(Pen)GHRGDTRCA
Completion: 4.77

Prompt: Look at this substance and give its reported pIC50. R(Pen)GRGDTPCA
Completion: 5.51

Prompt: Look at this substance and give its reported pIC50. R[Pen]GRGDSRCA (cysteine pairing not given here)
Completion: 4.92

Prompt: Look at this substance and give its reported pIC50. R(Pen)GRGDWPCR [Peptide 4R]
Completion: 6.28

Prompt: Look at this substance and give its reported pIC50. R(Pen)GRGDTPCR
Completion: 5.70

Prompt: Look at this substance and give its reported pIC50. R(Pen)GHRGDWRCR [Peptide 4Q]
Completion: 5.92

Prompt: Look at this substance and give its reported pIC50. G(Pen)GRGDTPCA
Completion: 4.55

Prompt: Look at this substance and give its reported pIC50. G(Pen)LRGDSRCA
Completion: 4.31

Prompt: Look at this substance and give its reported pIC50. R[Pen]GRGDLRCA (cysteine pairing not given here)
Completion: 4.89

Prompt: Look at this substance and give its reported pIC50. R2(Pen)GRGDTPCA
Completion: 5.57
